Tested on: U2OS
protocol.notes: Multiplex assay against U2OS
Format: toxicity, cell-based
condition.context: human, 24 h, 1 µM, compound concentration 1 uM, replicate 2
Listing of entries alongside the reported Population Membrane Permeable-Phenotype (%).
readout.type: Population Membrane Permeable-Phenotype (%)

compound | assayed.target | data.value
Cn1cc(C2=C(c3cn(C4CCN(Cc5ccccn5)CC4)c4ccccc34)C(=O)NC2=O)c2ccccc21 | U2OS | 19%
CN1CCN(CCOc2cc(OC3CCOCC3)c3c(Nc4c(Cl)ccc5c4OCO5)ncnc3c2)CC1 | U2OS | 6%
Cc1nc(Nc2n[nH]c3c2CN(C(=O)N[C@H](CN(C)C)c2ccccc2)C3(C)C)c2sccc2n1 | U2OS | 12%
Cc1c(-c2ccc(O)cc2)n(Cc2ccc(OCCN3CCCCCC3)cc2)c2ccc(O)cc12 | U2OS | 2%
COc1cc(-n2cnc3cc(-c4ccc(Cl)cc4)sc3c2=O)ccc1OCCN1CCCC1 | U2OS | 6%
CN1CCN(c2ccc(OC(F)(F)F)c(Nc3ncc4c(n3)-c3c(c(C(N)=O)nn3CCO)CC4)c2)CC1 | U2OS | 5%
Cc1[nH]c(/C=C2\C(=O)Nc3ccc(S(=O)(=O)N(C)c4cccc(Cl)c4)cc32)c(C)c1C(=O)N1CCN(C)CC1 | U2OS | 10%
Cl.N#Cc1ccc2[nH]cc(CCCCN3CCN(c4ccc5oc(C(N)=O)cc5c4)CC3)c2c1 [VILAZODONE HYDROCHLORIDE] | U2OS | 3%
CCN(CC)CCCCNc1ncc2cc(-c3cc(OC)cc(OC)c3)c(NC(=O)NC(C)(C)C)nc2n1 | U2OS | 84%
COc1cccc([C@@H](C)NCCCc2ccccc2Cl)c1.Cl [TECALCET HYDROCHLORIDE] | U2OS | 6%
Cc1cc(C)cc(-c2cnc3cc(Cl)c(-c4cccc(O)c4)cc3c2OCCCN)c1 | U2OS | 2%
CN1CCCC(n2nc(Cc3ccc(Cl)cc3)c3ccccc3c2=O)CC1.Cl (stereo unspecified) [AZELASTINE HYDROCHLORIDE] | U2OS | 10%
CN(C)C(=O)/C(C#N)=C/c1ccc(-c2nc3cnc4[nH]ccc4c3n2C2CCCCC2)o1 | U2OS | 2%
CN(C)CC#Cc1ccc(OCCCc2sc(N3CCc4cccc(C(=O)Nc5nc6ccccc6s5)c4C3)nc2C(=O)O)c(F)c1 | U2OS | 13%
CN(C)C(=O)N[C@H]1CC[C@H](CCN2CCN(c3cccc(Cl)c3Cl)CC2)CC1.Cl [CARIPRAZINE HYDROCHLORIDE] | U2OS | 7%
OC1(c2ccc(Cl)cc2)CCN(Cc2c[nH]c3ccccc23)CC1 | U2OS | 4%

---

Reported Population Normal (%) by item:
Tested on: U2OS
protocol.notes: Multiplex assay against U2OS
Type: toxicity, cell-based
condition.context: human, 48 h, 10 µM, compound concentration 10 uM, replicate 2
readout.type: Population Normal (%)

molecule | readout.type | data.value
OC1(c2ccc(Cl)cc2)CCN(Cc2c[nH]c3ccccc23)CC1 | Population Normal (%) | 91
C=CC(=O)Nc1cccc(C(=O)Nc2ccc(Nc3cc(-c4[nH]c(SC)nc4C)ccn3)cc2)c1 | Population Normal (%) | 90
Cc1nc(-c2ccc(-c3ccc(C(=O)N4CCc5cc6c(cc54)C4(CCN(C)CC4)CO6)cc3)c(C)c2)no1 [SB-224289] | Population Normal (%) | 81
CN1CCC[C@@H]1CCO[C@](C)(c1ccccc1)c1ccc(Cl)cc1.O=C(O)/C=C/C(=O)O [CLEMASTINE FUMARATE] | Population Normal (%) | 84
C[C@@H](NCCCc1cccc(C(F)(F)F)c1)c1cccc2ccccc12.Cl [CINACALCET HYDROCHLORIDE] | Population Normal (%) | 77
CCn1c(=O)c(-c2ccc(Cl)cc2Cl)cc2cnc(Nc3ccc(N4CCNCC4)c(F)c3)nc21 | Population Normal (%) | 43
COc1cc2nccc(Oc3ccc(NC(=O)Nc4cc(C)on4)c(Cl)c3)c2cc1OC.O | Population Normal (%) | 84
NC(=O)Nc1cc(-c2cccc(F)c2)sc1C(=O)N[C@H]1CCCNC1 [AZD-7762] | Population Normal (%) | 78
COc1cc(-n2cnc3cc(-c4ccc(Cl)cc4)sc3c2=O)ccc1OCCN1CCCC1 | Population Normal (%) | 94
CCOCCn1cc(C(=O)Nc2ccc(-n3nc(-c4cccnc4)cc3C(F)(F)F)cn2)ccc1=O [BI 1935] | Population Normal (%) | 95
CNCc1ccccc1-c1csc([C@H](C)Nc2nc(C)nc3cc(OC)c(OC)cc23)c1 [BAY-294] | Population Normal (%) | 38
CN1CCCC(n2nc(Cc3ccc(Cl)cc3)c3ccccc3c2=O)CC1.Cl (configuration not stated) [AZELASTINE HYDROCHLORIDE] | Population Normal (%) | 94
CC[C@H](C)C(=O)O[C@H]1C[C@@H](C)C=C2C=C[C@H](C)[C@H](CC[C@@H]3C[C@@H](O)CC(=O)O3)[C@H]21 [LOVASTATIN] | Population Normal (%) | 92
COc1ncc(-c2ccc3nccc(-c4ccnnc4)c3c2)cc1NS(=O)(=O)c1ccc(F)cc1F [OMIPALISIB] | Population Normal (%) | 81
CC(C)NCC(O)COc1ccc(CCOCC2CC2)cc1.Cl (configuration not stated) [BETAXOLOL HYDROCHLORIDE] | Population Normal (%) | 94
CC(C)(O)CNc1ncc(-c2ccnc(Nc3ccnc(Cl)c3)n2)c(CC2CC2)n1 | Population Normal (%) | 82
C[C@@]1(C(=O)Nc2ccc(F)nc2)CCCN1c1nc(Nc2cc(C3CC3)n[nH]2)c2cccn2n1 [BMS-754807] | Population Normal (%) | 80

Reference for the values: ChEMBL document CHEMBL4689842
